# Tested on: Cullin-3 (CUL3) neddylation
# assay: AlphaLISA assay for Cullin-3 (CUL3) neddylation in TF 1 cells
# Type: cell-based
# assaySetup: Homo sapiens, TF-1, 3 h, 3 hours treatment
pIC50: −log10 of the molar value.

compound	pIC50
CC#CC(=O)Nc1nn(-c2ccccc2)c2c1[C@H](c1ccc(F)cc1)[C@H](NC(=O)c1cccc(C(F)(F)F)c1)C(=O)N2CC (racemic)	6.00 to 7.00
CCN1C(=O)[C@@](CO)(NC(=O)c2cccc(C(F)(F)F)c2)[C@@H](c2ccc(F)cc2)c2c([C@@H](C)NC#N)nn(-c3ccccc3)c21	< 6.00
CCN1C(=O)[C@@H](NC(=O)c2cccc(C(F)(F)F)c2)[C@@H](c2ccc(F)cc2)c2c(CNC(=O)/C(C#N)=C/C(C)C)nn(-c3ccccc3)c21 (racemic)	≥ 7.00
CCN1C(=O)[C@@H](NC(=O)c2ccn(C(F)(F)F)n2)[C@@H](c2ccc(F)cc2)c2c(C(=O)N3CCN(C)CC3C#N)nn(-c3ccccc3)c21 (stereo partly shown)	≥ 7.00
CCN1C(=O)[C@@H](NC(=O)c2cccc(C(F)(F)F)c2)[C@@H](c2ccc(F)cc2)c2c(C(=O)N(C)[C@H](C)C#N)nn(-c3ccccc3)c21 (single isomer, unassigned)	≥ 7.00
CCN1C(=O)[C@@H](NC(=O)c2cccc(C(F)(F)F)c2)[C@@H](c2ccc(F)cc2)c2c(C(=O)N3[C@H](C#N)C[C@H]4C[C@H]43)nn(-c3ccccc3)c21	≥ 7.00
CCN1C(=O)[C@@H](NC(=O)c2cccc(C(F)(F)F)c2)[C@@H](c2ccc(F)cc2)c2c(C(=O)N(C)[C@@H](C#N)CCN(C)C)nn(-c3ccccc3)c21 (single isomer, unassigned)	≥ 7.00
CCN1C(=O)[C@H](NC(=O)c2cccc(C(F)(F)F)c2)[C@H](c2ccc(F)cc2)c2c(C(=O)N(CC#N)CCO)nn(-c3ccccc3)c21 (stereo in doubt)	< 6.00
CCN1C(=O)[C@@H](NC(=O)c2cccc(C(F)(F)F)c2)[C@@H](c2ccc(F)cc2)c2c(C(=O)N(C)[C@@H](C)C#N)nn(C3CCOCC3)c21	≥ 7.00
CCN1C(=O)[C@@H](NC(=O)c2cccc(C(F)(F)F)n2)[C@@H](c2ccc(F)cc2)c2c(C(=O)N3CCC[C@H]3C#N)nn(C3CCOCC3)c21	≥ 7.00

---

Examples of compounds with documented pIC50 follow.
# System: Cullin-3 (CUL3) neddylation
# assay: AlphaLISA assay for Cullin-3 (CUL3) neddylation in TF 1 cells
# Format: cell-based
# assaySetup: Homo sapiens, TF-1, 3 h, 3 hours treatment
pIC50: −log10 of the molar value.

compound	pIC50
CCN1C(=O)[C@@H](NC(=O)c2cccc(C(F)(F)F)c2)[C@@H](c2ccc(F)cc2)c2c(C(=O)N3CCC[C@H]3C#N)nn(-c3ccccc3)c21 (racemic) [Compound I-34]	≥ 7.00
CCN1C(=O)[C@H](NC(=O)c2cccc(C(F)(F)F)c2)[C@H](C)c2c(C(=O)N3[C@H](C#N)C[C@H]4C[C@H]43)nn(C3CCOCC3)c21	6.00 to 7.00
CCN1C(=O)[C@@H](NC(=O)c2cccc(C(F)(F)F)c2)C(c2ccc(F)cc2)c2c(C(=O)N(C)C(C)C#N)nn(C3CCOCC3)c21 (some centres unmarked)	≥ 7.00
CCN1C(=O)[C@H](NC(=O)c2cccc(C(F)(F)F)c2)[C@@H](c2ccc(F)cc2)c2c(C3(N(C)C#N)CC3)nn(-c3ccccc3)c21 (racemic)	< 6.00
CCN1C(=O)[C@@H](NC(=O)c2cccc(C(F)(F)F)c2)[C@@H](c2ccc(F)cc2)c2c([C@@H](CCO)NC#N)nn(-c3ccccc3)c21 (mixture of isomers)	< 6.00
CCN1C(=O)[C@H](NC(=O)c2cccc(C(F)(F)F)c2)[C@H](c2ccc(F)cc2)c2c([C@@H](C)NC#N)nn(-c3ccccc3)c21	6.00 to 7.00
CCN1C(=O)[C@@H](NC(=O)c2cccc(C(F)(F)F)c2)[C@@H](c2ccc(F)cc2)c2c(C(=O)N3CCNC[C@H]3C#N)nn(C3CCOCC3)c21	≥ 7.00
CCN1C(=O)[C@@H](NC(=O)c2cccc(C(F)(F)F)c2)[C@@H](c2ccc(F)cc2)c2c(CN(C#N)CCO)nn(-c3ccccc3)c21 (racemic)	6.00 to 7.00
CCN1C(=O)[C@@H](NC(=O)c2cccc(C(F)(F)F)c2)[C@@H](c2ccc(F)cc2)c2c(C(=O)N(CC#N)CCCN(C)C)nn(C3CCOCC3)c21	≥ 7.00
CCN1C(=O)[C@@H](NC(=O)c2ccc3scnc3c2)[C@@H](C2CC2)c2c(C(=O)N3[C@H](C#N)C[C@H]4C[C@H]43)nn(C3CCOCC3)c21	< 6.00
CCN1C(=O)[C@H](NC(=O)c2cccc(C(F)(F)F)c2)[C@H](C2CC2)c2c(C(=O)N(CC#N)C3CC3)nn(-c3ccccc3)c21	< 6.00

---

Overview of recorded IC50 for various compounds
# targetOrTestSystem: DCN1 (DCUND1) protein PONY domain (Homo sapiens (Human))
# assay: TR-FRET assay, DCN1 binding with FAM-labeled probe
# assaySetup: TR FRET IC50 1 hr (nM), 1 hr after treatment with compound
reportedEndpoint: IC50

>>> print(df.to_string())
                            smilesstructure                        targetortestsystem         reported
0  CCCn1nc(C(=O)N2CCC[C@H]2C#N)c2c1N(CC)C(=O)[C@H](NC(=O)c1cccc(C(F)(F)F)c1)[C@@H]2C1CC1  DCN1 (DCUND1) protein PONY domain (Homo sapiens (Human))  1000 to 3000 nM
1  CCN1C(=O)[C@@H](NC(=O)c2cnc(C(F)(F)F)s2)[C@@H](C2CC2)c2c(C(=O)N3[C@H](C#N)C[C@H]4C[C@H]43)nn(C3CCOCC3)c21  DCN1 (DCUND1) protein PONY domain (Homo sapiens (Human))  1000 to 3000 nM
2  CCN1C(=O)[C@@H](NC(=O)c2ccccc2)[C@@H](C2CC2)c2c(C(=O)N3[C@H](C#N)C[C@H]4C[C@H]43)nn(C3CCOCC3)c21  DCN1 (DCUND1) protein PONY domain (Homo sapiens (Human))   200 to 1000 nM

---

# targetOrTestSystem: DCN1 (DCUND1) protein PONY domain (Homo sapiens (Human))
# assay: Off-rate measurement of reversible covalent molecules (jump dilution TR-FRET with Cy5 probe)
# Assay type: binding
# assaySetup: inverse of rate constant K; jump dilution TR-FRET
# residence time per entry
reportedEndpoint: residence time

>>> print(df.to_string())
                            smilesstructure  reportedendpoint  reported
0  CCc1cccc(C(=O)N[C@@H]2C(=O)N(CC)c3c(c(C(=O)N4[C@H](C#N)C[C@H]5C[C@H]54)nn3C3CCOCC3)[C@@H]2C2CC2)c1    residence time   224 min
1  CCN1C(=O)[C@@H](NC(=O)c2cccc(C(F)(F)F)c2)[C@@H](C2CC2)c2c(C(=O)N3CS(=O)(=O)C[C@H]3C#N)nn(C3CCOCC3)c21    residence time  66.3 min
2  CCN1C(=O)[C@@H](NC(=O)c2cccc(C(F)(F)F)c2)[C@@H](c2ccc(F)cc2)c2c(C(=O)N(C)[C@H](C#N)CCN(C)C)nn(C3CCOCC3)c21    residence time  78.6 min
3  CCN1C(=O)[C@@H](NC(=O)c2cccc(C(F)(F)F)c2)[C@@H](C)c2c(C(=O)N3[C@H](C#N)C[C@H]4C[C@H]43)nn(C3CCOCC3)c21    residence time   144 min

---

# targetOrTestSystem: DCN1 (DCUND1) protein PONY domain (Homo sapiens (Human), UniProt Q96GG9)
# Sequence (Q96GG9 60-248): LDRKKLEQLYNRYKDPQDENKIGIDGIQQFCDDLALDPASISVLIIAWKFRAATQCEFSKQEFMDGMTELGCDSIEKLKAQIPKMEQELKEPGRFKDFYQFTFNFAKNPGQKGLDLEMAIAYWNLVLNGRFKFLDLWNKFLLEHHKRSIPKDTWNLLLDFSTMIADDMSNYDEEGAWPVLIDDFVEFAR
# assay: TR-FRET assay, DCN1 binding with FAM-labeled probe
# assaySetup: 24 hr after treatment with compound; read-out: TR FRET IC50 24 hr

compound	targetOrTestSystem	IC50
CCN1C(=O)[C@@H](NC(=O)N2CCC[C@H](C(F)(F)F)C2)[C@@H](c2ccc(F)cc2)c2c(C(=O)N3CCC[C@H]3C#N)nn(-c3ccccc3)c21 (single isomer, unassigned) [Compound I-501]	DCN1 (DCUND1) protein PONY domain (Homo sapiens (Human), UniProt Q96GG9)	200 to 1000 nM
CCN1C(=O)[C@@H](NC(=O)c2cccc(C(F)(F)F)c2)[C@H](c2ccc(F)cc2)c2c(CNC(=O)CC#N)nn(-c3ccccc3)c21 [Compound I-299]	DCN1 (DCUND1) protein PONY domain (Homo sapiens (Human), UniProt Q96GG9)	200 to 1000 nM
C=C(CN1CCC1)C(=O)NCc1nn(-c2ccccc2)c2c1[C@@H](C1CC1)[C@@H](NC(=O)c1cccc(C(F)(F)F)c1)C(=O)N2CC (stereo in doubt) [Compound I-636]	DCN1 (DCUND1) protein PONY domain (Homo sapiens (Human), UniProt Q96GG9)	1000 to 3000 nM
CCN1C(=O)[C@@H](NC(=O)c2cccc(C(F)(F)F)c2)[C@@H](C2CC2)c2c(C(=O)N3CC[C@@H](NC)[C@@H]3C#N)nn(C3CCOCC3)c21 (relative stereo) [Compound I-421]	DCN1 (DCUND1) protein PONY domain (Homo sapiens (Human), UniProt Q96GG9)	≤ 200 nM
CCN1C(=O)[C@@H](NC(=O)c2cccc(C(F)(F)F)c2)[C@@H](c2ccc(F)cc2)c2c(C(=O)N3CCOC[C@H]3C#N)nn(-c3ccccc3)c21 (mixture of isomers) [Compound I-295]	DCN1 (DCUND1) protein PONY domain (Homo sapiens (Human), UniProt Q96GG9)	≤ 200 nM
CCCn1nc(C(=O)N2[C@H](C#N)C[C@H]3C[C@H]32)c2c1N(CC)C(=O)[C@@H](NC(=O)c1cccc(C(F)(F)F)c1)[C@H]2C1CC1 [Compound I-328]	DCN1 (DCUND1) protein PONY domain (Homo sapiens (Human), UniProt Q96GG9)	≤ 200 nM
CCN1C(=O)[C@@H](NC(=O)c2cccc(C(F)(F)F)c2)[C@@H](C2CC2)c2c(C(=O)N3CC[C@H](OC)[C@H]3C#N)nn(C3CCOCC3)c21 [Compound I-418]	DCN1 (DCUND1) protein PONY domain (Homo sapiens (Human), UniProt Q96GG9)	≤ 200 nM
CCN1C(=O)[C@H](NC(=O)c2cccc(C(F)(F)F)c2)[C@H](c2ccc(F)cc2)c2c(C(=O)N3CCC[C@H]3C#N)nn(-c3cccc(OCCN4CCN(C5COC5)CC4)c3)c21 [Compound I-648]	DCN1 (DCUND1) protein PONY domain (Homo sapiens (Human), UniProt Q96GG9)	1000 to 3000 nM
CCN1C(=O)[C@@H](NC(=O)c2cccc(C(F)(F)F)c2)[C@@H](c2ccc(F)cc2)c2c(CC/C=C/C(=O)NC)nn(-c3ccccc3)c21 (racemic) [Compound I-91]	DCN1 (DCUND1) protein PONY domain (Homo sapiens (Human), UniProt Q96GG9)	200 to 1000 nM
C=C(C(=O)O)c1nn(-c2ccccc2)c2c1[C@@H](c1ccc(F)cc1)[C@@H](NC(=O)c1cccc(C(F)(F)F)c1)C(=O)N2CC [Compound I-77]	DCN1 (DCUND1) protein PONY domain (Homo sapiens (Human), UniProt Q96GG9)	1000 to 3000 nM
